Provide the recorded melting point for the entries that follow.

Could you share which melting point value was measured for CC(=O)Nc1ccc(-c2ccc(C(=O)N3CC4CCCC(C3)N4C)o2)cc1.O=C(O)/C=C/C(=O)O ? 197 to 229 °C

Please answer likewise for CN1C2CCCC1CN(C(=O)c1ccc(-c3ccc([N+](=O)[O-])cc3)o1)C2.Cl 263 °C

Ok, now CN1C2CCCC1CN(C(=O)c1ccc(-c3ccc(NC(=O)c4ccccc4)cc3)o1)C2.O=C(O)/C=C/C(=O)O 246 to 252 °C

Thanks! And CN1C2CCCC1CN(C(=O)c1ccc(-c3ccc(N)cc3)o1)C2 ? 147 to 149 °C

Thanks! And CCNC(=O)Nc1ccc(-c2ccc(C(=O)N3CC4CCCC(C3)N4C)o2)cc1.O=C(O)/C=C/C(=O)O ? 154 to 161 °C
